Tested on: HL-60(TB) leukemia
PROTOCOL: NCI tumour cell line growth inhibition, 48 h
In this section we review reported TGI values for a set of compounds.
Give the quantity in µM, number only.

Quick one: TGI for `C/C(=N\O)c1ccc2ccc3ccccc3c2c1` ?
66.6

Which TGI is listed for `CCN1CCN(c2nc(C)cc(N(CCCNc3ccnc4cc(Cl)ccc34)Cc3ccc4c(c3)OCO4)n2)CC1` ?
3.96

====

// reported GI50 per item
Tested on: SR leukemia
PROTOCOL: NCI tumour cell line growth inhibition, 48 h

COc1ccc(-c2cc(-c3ccc(Nc4nc(Nc5ccccc5)nc(Nc5ccc(Cl)cc5)n4)cc3)nc(N)n2)cc1 : 5630 nM
C#Cc1cccc(Nc2ncnc3cc(NC(=O)CCl)ccc23)c1 : 535 nM
COc1cc(CNCCCCCCN2C(=O)c3cccc4cccc(c34)C2=O)ccc1O : 2360 nM

Enter reported GI50 observed with SR leukemia for `COc1cc2oc(-c3cccc(C(=O)Nc4ccc(Cl)cc4)c3)cc(=O)c2c(OC)c1OC`
493 nM

// map `c1cc(N[C@@H]2CCNC2)nc(-c2cnc3ccc(-c4cn[nH]c4)cn23)c1` to recorded GI50 (system: SR leukemia)
2370 nM

Missing value: GI50, SR leukemia, entry `COc1cnc2c(c1)C(=O)c1c-2n(CCCNC2=NCCS2)c(=O)c2cc(F)ccc12` . Fill in?
49.9 nM

Notebook entry, SR leukemia assay: GI50 of `CCOCC1(COCC)CCC(c2[nH]ncc2CN(C)CCNC)CC1` = ?
23700 nM

Give GI50 (SR leukemia) of the following compound: CSC1=NC(=Nc2c(C)cccc2C)C2(CCC(C(C)(C)C)CC2)N1c1ccc(Cl)cc1 (stereo not given)
4210 nM

Look up GI50 with SR leukemia for this compound: `COc1cc(-c2cc(/C=C/C(=O)c3ccc(F)c(F)c3)[nH]n2)cc(OC)c1OC`
2920 nM

Under SR leukemia: GI50 value of `CCOC(=O)c1c(-c2ccccc2)[n+](=O)c2cc(Cl)c(Cl)cc2n1[O-]` ?
529 nM

====

Test system: UACC-62 melanoma
PROTOCOL: NCI tumour cell line growth inhibition, 48 h
Property: GI50; scope: individual molecules

Item under review: `COc1cc2oc(-c3cccc(C(=O)Nc4ccc(Cl)cc4)c3)cc(=O)c2c(OC)c1OC` . Reported GI50?
2500 nM

GI50 lookup needed for `O=C1Nc2ccc(Cl)cc2/C1=C\c1c(-c2ccc(Cl)cc2)nc2sc(C3CC3)nn12` , thanks.
3060 nM

====

System: NCI-H522 lung
PROTOCOL: NCI tumour cell line growth inhibition, 48 h
Label rule, in plain words: TGI of 7 µM and up is T, under 7 µM is F.

Answer whether TGI of C[C@H]1CC[P+](Cc2ccccc2)(c2ccccc2)C1 (stereo not given in full) is greater than or equal to 7 µM.
T

Reported TGI at or above 7 µM? `Oc1ccc(Cl)cc1C(c1cc(Cl)ccc1O)C(Cl)(Cl)Cl`
F

Does the compound `[N-]=[N+]=Nc1ccccc1-c1ccccc1[N+](=O)[O-]` have recorded TGI that is 7 µM or more?
T

Does TGI meet or surpass 7 µM for `COc1ccc2nc3cc(Cl)ccc3c(NCCCNCCO)c2c1` ?
F

Check this compound for TGI at or above 7 µM: `COc1ccc(-c2cc(=O)c3c(O)c(OC)c(OC)c(OC)c3o2)cc1OC`
T

Does O=C1Oc2ccccc2C1C/C(=N\Nc1ccccc1)c1ccccc1O (stereo not given) have a reported TGI of at least 7 µM?
T

====

Tested on: SK-OV-3 ovarian
PROTOCOL: NCI tumour cell line growth inhibition, 48 h
REPORTED_PROPERTY: GI50

// solved cases for GI50 follow
CCN(CC)c1ccc(/C=C/C(=O)c2ccc(Nc3nc(Nc4ccccc4)nc(Nc4ccccc4)n3)cc2)cc1 : 10.6 µM
COc1cc(/C=C2\C(=O)N(Cc3ccc(Cl)cc3)c3ccccc32)cc(OC)c1OC : 6.82 µM
O=C1Nc2ccc(Br)cc2C12CC(c1ccccc1)=NN2 (stereo not given) : 4.44 µM
C=C1C(=O)O[C@H]2[C@H]1CC/C(COC(=O)c1cc(OC)c(OC)c(OC)c1)=C\CC[C@@]1(C)O[C@@H]21 : 5.22 µM

Now for a further compound.
Tell me the measured GI50 of CC(C)=CCc1cc2c(cc1O)C1=C(C(=O)C3=C(C1=O)S(=O)(=O)CCN3)C(C=C(C)C)O2 (stereo not given) , please.
2.98 µM

====

Measured TGI values are reported for all entries that follow.
System: EKVX NSCLC
PROTOCOL: NCI tumour cell line growth inhibition, 48 h

For O=C1C(Cl)N(c2c(Cl)cccc2Cl)C1c1c[nH]c2ccccc12 (configuration not stated) , what is its reported TGI?
> 100 µM

Given `Nc1nc(NNc2cccc(F)c2)cc(=O)[nH]1` , state its recorded TGI.
> 100 µM

Param item = `Cc1ccc(NC(=O)CCCC(=O)CC(=O)c2ccc(Br)cc2)cc1` ; retrieve measured TGI.
> 100 µM

Requested field: TGI. Item: `CCOC(=O)c1c(-c2ccccc2)[n+](=O)c2cc(Cl)c(Cl)cc2n1[O-]`
34.5 µM

====

Test system: SF-295 CNS
PROTOCOL: NCI tumour cell line growth inhibition, 48 h
# reported TGI; entries follow

Here are 4 compounds together with their reported answers.
COc1ccc(/C=c2\c(=O)[nH]c3nc4ccccc4c(=O)n23)cc1 : > 100 µM
Cc1c(C)c2c(c(N)c1C#N)C(=O)N(O)C2=O : > 100 µM
CC(=O)C1CCN(c2ccccc2)C1 (stereo not drawn) : > 100 µM
COC(=O)C(=O)C(C(=O)OC)C(=O)C(=O)Nc1c(C)cccc1C (stereo not drawn) : > 100 µM

Would you kindly look at the next entry?
Which TGI is reported for this compound? `CC1(C)OC(=O)C(C)(C)C(=O)O1`
> 100 µM

====

System: HOP-62 NSCLC
PROTOCOL: NCI tumour cell line growth inhibition, 48 h
Where a SMILES comes first, the peptide text is derived from it. The star is where a group is joined. Trt = c1ccc(C(c2ccccc2)(c2ccccc2)*)cc1; Cbz = O=C(OCc1ccccc1)*
Measured TGI by item

Guide cases for TGI, answers given:
Cc1cccc(C2ON=C(c3ccccc3)N2C23CC4CC(CC(C4)C2)C3)c1 (stereo not given) : > 10 µM
COc1nc(N=P(c2ccccc2)(c2ccccc2)c2ccccc2)cc(=O)n1C : > 100 µM

Record request: TGI value, item `CC(C)(O)/C1=C/C=C/CCCCCCCCCC1`
> 100 µM

TGI for COC(=O)C(CO)NC(=O)C(CSC(c1ccccc1)(c1ccccc1)c1ccccc1)NC(=O)OCc1ccccc1 (stereo not given) (Cbz-Cys(Trt)-Ser-OMe; configuration not given here) ?
46.5 µM

TGI lookup needed for `O=C1NC(=S)S/C1=C\c1cn(-c2ccccc2)nc1-c1ccccc1` , thanks.
68.4 µM

GET /values?readout=TGI&item= CC(C)=CCc1cc2c(cc1O)C1=C(C(=O)C3=C(C1=O)S(=O)(=O)CCN3)C(C=C(C)C)O2 (stereo not given)
4.63 µM

Looking for the measured TGI of `COc1ccc(-c2cc(-c3ccc(Nc4nc(Nc5ccccc5)nc(Nc5ccc(Cl)cc5)n4)cc3)nc(N)n2)cc1` , can you help?
33.1 µM

Requested field: TGI. Item: CC1(C)OP(=O)(c2ccccc2)C=C1Sc1ccc([N+](=O)[O-])cc1[N+](=O)[O-] (stereo not given)
> 100 µM

TGI for O=NN1C(c2ccccc2)CNC(=O)CC1c1ccccc1 (stereo not given) ?
> 100 µM

// lookup TGI for `C/C(=C/C(=O)Nc1ccccc1)Nc1onc(C)c1C`
> 100 µM

Recorded TGI for Brc1ccc(C2C3CSc4ccccc4C3=NN2c2ccccc2)cc1 (stereo not given) , please?
> 100 µM

TGI lookup needed for `Nc1nc2c(N)cc(C(F)(F)F)cc2nc1-c1ccccc1` , thanks.
> 100 µM

I am curious: what TGI value has been reported for `CC1=NN(c2nc(N)nc(NS(=O)(=O)c3cc(C)c(Cl)cc3S)n2)C(C)(C)C1` ?
> 10 µM

GET /values?readout=TGI&item= COc1ccc(C2c3cc4c(cc3OC(NNc3ccccc3)C2C)OCO4)cc1 (stereo not given)
20.2 µM

Which measured TGI value corresponds to CC(=O)C1CCN(c2ccccc2)C1 (stereo not given) ?
> 100 µM

Fill in: TGI of `CC(=O)Nc1[nH]n(C)c(=O)c1-c1nnc(C)s1` is ___
> 100 µM

// TGI lookup, key: CC(C)C1CNC(=O)C2(C=NC(C(C)C)CNC(=O)C3(C=N1)CCCO3)CCCO2 (stereo not given)
> 10 µM

GET /values?readout=TGI&item= `O=C(CS(=O)(=O)c1nc2ccccc2nc1-c1ccccc1)Nc1ccc(F)cc1`
> 100 µM

Consider the compound `COc1ccc2[nH]c3c(c2c1)[C@H](c1ccccc1)C[C@@H]1C(=O)N(c2ccccc2)C(=O)[C@H]31` and give its measured TGI.
48.8 µM

So what does the record say about TGI for `O=C1Nc2ccc(Cl)cc2/C1=C\c1c(-c2ccc(Cl)cc2)nc2sc(C3CC3)nn12` ?
4.21 µM
